test: Pharmacokinetic study in mouse
Assay type: in vivo, ICR mice
experimental.setup: male, ICR, plasma, PO, 10 mg/kg
observable: AUC(0-t) (ng·h/mL)
Give your result in ng·h/mL as a bare value.

response.value for `CC(C)n1cc2nc(-c3cc(F)cc(F)c3)nc(NCCc3c[nH]c4ccccc34)c2n1` (field: AUC(0-t)) = 8160

---

test: Pharmacokinetic study in mouse
Format: in vivo, ICR mice
experimental.setup: male, ICR, plasma, IV, 5 mg/kg
Method: To estimate the pharmacokinetic parameters in animals, the drug was administered via intravenous (I.V., 5 mg/kg) and oral (P.O., 10 mg/kg) routes in seven-week-old male ICR mice (Orient Bio Inc., Seongnam, Korea). Blood samples were collected at 0.083 (for I.V.), 0.5, 1, 2, 4, 8, and 24 h after drug administrations and then immediately centrifuged at 10,000× g for 3 min. The plasma concentrations of the drug were determined via LC-MS/MS. […]
observable: AUC(0-t) (ng·h/mL)
Give your result in ng·h/mL as a bare value.

response.value for `CC(C)n1cc2nc(-c3cc(F)cc(F)c3)nc(NCCc3c[nH]c4ccccc34)c2n1` (field: AUC(0-t)) = 5750
